# Test system: M19-MEL
# PROTOCOL: NCI tumour cell line growth inhibition, 48 h
The source made the active and inactive calls. No stated cut-off is given here; in the data, active = GI50 up to about 1.1 µM and inactive = higher.
Parameter call: string, one of active, inactive

// known answers, use as guide
COc1cc(Cn2c(=S)ss/c2=N\C(=S)N(C)C)cc(OC)c1OC :: inactive
CC[C@@H](C(=O)[C@@H](C)[C@@H](O)[C@H](C)CCc1ccc(C)c(O)c1C(=O)O)[C@H]1O[C@](CC)([C@H]2CC[C@](O)(CC)[C@H](C)O2)C[C@@H]1C [LASALOCID A SODIUM] :: inactive
Cc1ccc([S+](c2ccccc2)c2cc(C)ccc2C)cc1 (configuration not stated) :: inactive
COc1c2nc(CCl)[nH]c(=O)c2c(OC)c2nc(CCl)[nH]c(=O)c12 :: inactive
O=C1c2ccoc2C(=O)c2oc(=O)ccc21 :: inactive
COC(=O)N1CCc2c(nc(N(C)CCO)[nH]c2=O)C1 :: inactive

In the following, a different molecule is considered.
Recorded call for Nc1n[n+]([O-])c2ccccc2[n+]1[O-] ?
inactive
